System: Streptococcus salivarius
Experiment: growth AUC relative to DMSO control (median of replicates) (fraction); higher = more growth (less inhibition), active = hit call of the paper
Settings: 20 µM; 24 h
Test readout: growth AUC
One number for each entry.

Past entries and their recorded results:
Compound: NC(=O)c1c(Cl)cccc1Cl
Study target: Streptococcus salivarius
growth AUC: 0.991
--
Compound: [O-][n+]1nc(-n2ccnc2)nc2ccc(Cl)cc21
Study target: Streptococcus salivarius
growth AUC: 1
--
Compound: O=C(O)Cc1c(Cl)ccc(Cl)c1Cl
Study target: Streptococcus salivarius
growth AUC: 1.01
--
Compound: CCSc1nc(NC(C)C)nc(NC(C)C)n1
Study target: Streptococcus salivarius
growth AUC: 0.999
--
Compound: Clc1ccc(CSc2ccc(Cl)cc2)cc1
Study target: Streptococcus salivarius
growth AUC: 1.01

Could you report growth AUC for every entry in the following list?
1. c1ccc2c(c1)ccc1ccccc12
2. CCOCCc1ccc(OCCNc2ncnc(CC)c2Cl)c(C)c1C
3. O=C(Oc1ccccc1)n1c(C(F)(F)F)nc2cc(Cl)c(Cl)cc21
4. CCc1nc2ncnn2c(N)c1CCCC(=O)O.Cl
5. Cc1[nH]oc(=O)c1N=Nc1ccccc1Cl
6. O=C(O)CCCc1c[nH]c2ccccc12
7. CCCOC(=O)c1ccc(C(=O)OCCC)nc1

Result string:
0.997
1
0.342
1.01
0.982
1
0.996

Could you report growth AUC for every entry in the following list?
1. CSC(=O)c1cccc2nnsc12
2. CC(C)C1C2CCC1c1c(NC(=O)c3cn(C)nc3C(F)F)cccc12 (centres undefined)

Result string:
1: 0.968; 2: 0.927

Data origin, for the record: the supplement of paper PMC12669032
